Could you please report measured IC50 for the items listed next?
System: HCT-116
Test: Antiproliferative activity against human HCT116 cells after 48 hrs by MTT assay
Assay type: functional, cell-based
Settings: Homo sapiens, HCT-116, 48 h; read-out: IC50
Answers are plain numbers, in µM.

# smi, quantity_unit, IC50
records = [
    ("CC(C)(O)CCC[C@@](C)(O)[C@H]1CC[C@]2(C)[C@@H]1[C@H](O)C[C@@H]1[C@@]3(C)CC[C@H](O)C(C)(C)[C@@H]3CC[C@]12C", "µM", 21.5),
]

API: the following record is the query input.
Query: Requested field: IC50. Item: `CC(C)(O)CCC[C@@](C)(O)[C@H]1CC[C@]2(C)[C@@H]1[C@H](OC(=O)CCC(=O)O)C[C@@H]1[C@@]3(C)CC[C@H](O)C(C)(C)[C@@H]3CC[C@]12C`
Reply: 75.3

---

Tested on: HCT-116
Assay: Antiproliferative activity against human HCT116 cells after 48 hrs by MTT assay
Assay type: functional, cell-based
Conditions: Homo sapiens, HCT-116, 48 h; read-out: IC50
Could you please report measured pIC50 for the items listed next?
Numbers only, as −log10 of the molar value.

Value sought for every listed molecule: pIC50.
1. CC(C)=CCC[C@@](C)(O)[C@H]1CC[C@]2(C)[C@@H]1[C@H](O)C[C@@H]1[C@@]3(C)CC[C@H](OS(N)(=O)=O)C(C)(C)[C@@H]3CC[C@]12C
2. CC(C)(O)CCC[C@@](C)(OS(N)(=O)=O)[C@H]1CC[C@]2(C)[C@@H]1[C@H](O)C[C@@H]1[C@@]3(C)CC[C@H](OS(N)(=O)=O)C(C)(C)[C@@H]3CC[C@]12C
3. O=c1[nH]cc(F)c(=O)[nH]1
4. C=C(CCCC(C)(C)O)[C@H]1CC[C@]2(C)[C@@H]1[C@H](O)C[C@@H]1[C@@]3(C)CC[C@H](OS(N)(=O)=O)C(C)(C)[C@@H]3CC[C@]12C
5. CC(C)=CCC[C@@](C)(O)[C@H]1CC[C@]2(C)[C@@H]1[C@H](OS(N)(=O)=O)C[C@@H]1[C@@]3(C)CC[C@H](O)C(C)(C)[C@@H]3CC[C@]12C

Reply:
1: 4.57; 2: 4.38; 3: 4.53; 4: 4.37; 5: 4.24

---

Experiment: Antiproliferative activity against human IOSE-144 cells after 48 hrs by MTT assay
Type: cell-based
Settings: IOSE-144, 48 h
Could you please report measured IC50 for the items listed next?

Consider the worked cases shown below.
# smi, result
measured = [
    ("CC(C)(O)CCC[C@@](C)(O)[C@H]1CC[C@]2(C)[C@@H]1[C@H](OC(=O)CCC(=O)O)C[C@@H]1[C@@]3(C)CC[C@H](O)C(C)(C)[C@@H]3CC[C@]12C", "> 100 µM"),
    ("CC(C)=CCC[C@@](C)(O)[C@H]1CC[C@]2(C)[C@@H]1[C@H](OS(N)(=O)=O)C[C@@H]1[C@@]3(C)CC[C@H](O)C(C)(C)[C@@H]3CC[C@]12C", "> 100 µM"),
]

Query: Requested field: IC50. Item: `C=C(CCCC(C)(C)O)[C@H]1CC[C@]2(C)[C@@H]1[C@H](OS(N)(=O)=O)C[C@@H]1[C@@]3(C)CC[C@H](OS(N)(=O)=O)C(C)(C)[C@@H]3CC[C@]12C`
Reply: > 100 µM
